assay: Hepatocyte stability and metabolism (parent remaining, acid and OPD formation); format: in vitro ADME; settings: human hepatocytes, 6 h, 5 μM
metric: % left 6H Hum hep

// known answers, use as guide
Nc1ccccc1NC(=O)c1ccc2c(cnn2Cc2ccc(F)c(F)c2)c1 | B (50%>B>30%)
Cc1ccc(Cn2ncc3cc(C(=O)Nc4ccc(F)cc4N)ccc32)c(C)n1 | A (50%<A)
Nc1ccccc1NC(=O)c1ccc2c(cnn2Cc2cccnc2)c1 | A (50%<A)
Nc1ccccc1NC(=O)c1ccc2c(cnn2CC2CC2)c1 | B (50%>B>30%)
Nc1ccccc1NC(=O)c1ccc2nn(Cc3cccnc3)cc2c1 | A (50%<A)
Nc1ccccc1NC(=O)c1ccc2c(cnn2Cc2ccccc2)c1 | B (50%>B>30%)
Nc1ccccc1NC(=O)c1ccc2c(cnn2Cc2cncc(F)c2)c1 | A (50%<A)

With those in mind, consider the next compound.
Q) So what's the measured % left 6H Hum hep for this one? Nc1cc(F)ccc1NC(=O)c1ccc2c(cnn2Cc2cncc(F)c2)c1
A) B (50%>B>30%)

###

The entries below come with measured pIC50 values attached.
molecular target: HDAC2 (Homo sapiens (Human))
Sequence (Q92769 whole entry): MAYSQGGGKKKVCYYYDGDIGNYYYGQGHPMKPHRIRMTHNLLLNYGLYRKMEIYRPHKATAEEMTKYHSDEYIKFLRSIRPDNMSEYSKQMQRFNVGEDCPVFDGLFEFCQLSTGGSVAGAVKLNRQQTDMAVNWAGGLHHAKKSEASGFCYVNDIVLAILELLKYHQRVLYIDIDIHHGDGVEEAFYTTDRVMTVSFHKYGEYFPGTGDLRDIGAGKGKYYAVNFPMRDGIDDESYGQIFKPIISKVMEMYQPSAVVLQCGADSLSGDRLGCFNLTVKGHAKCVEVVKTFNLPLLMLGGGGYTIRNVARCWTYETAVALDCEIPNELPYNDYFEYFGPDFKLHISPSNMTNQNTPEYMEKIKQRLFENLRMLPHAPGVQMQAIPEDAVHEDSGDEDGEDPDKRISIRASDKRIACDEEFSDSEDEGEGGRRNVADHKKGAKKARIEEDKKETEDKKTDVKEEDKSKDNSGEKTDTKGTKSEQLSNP
pIC50: −log10 of the molar value.

Cc1ccc(Cn2cc3cc(C(=O)Nc4ccccc4N)ccc3n2)c(C)n1 [Compound A15] | 5.30 to 6.00
Nc1ccccc1NC(=O)c1ccc2nn(Cc3cccnc3)cc2c1 [Compound A13] | > 6.00
Cc1ccc(Cn2ncc3cc(C(=O)Nc4ccc(F)cc4N)ccc32)c(C)n1 [Compound A8] | 5.30 to 6.00

Q) Tell me reported pIC50 for Nc1ccccc1NC(=O)c1ccc2c(cnn2Cc2ccc(F)c(F)c2)c1 [Compound A9] , tested with HDAC2 (Homo sapiens (Human)).
A) > 6.00

Q) Tell me reported pIC50 for Cc1ccc(Cn2ncc3cc(C(=O)Nc4ccccc4N)ccc32)c(C)n1 [Compound A5] , tested with HDAC2 (Homo sapiens (Human)).
A) > 6.00

Q) Tell me reported pIC50 for Nc1ccccc1NC(=O)c1ccc2c(cnn2CC2CC2)c1 [Compound A11] , tested with HDAC2 (Homo sapiens (Human)).
A) > 6.00

###

assay: Brain penetration studies; type: in vivo; conditions: C57/BL6/J, mouse; mice, s.c. 5 or 50 mg/kg or i.v. 5 mg/kg; Cmax(brain)/Cmax(plasma); read-out: BPR (brain/plasma ratio)
The entries below come with measured Kp values attached.

Nc1cc(F)ccc1NC(=O)c1ccc2c(cnn2Cc2ccc(F)c(F)c2)c1 | > 1
Nc1ccccc1NC(=O)c1ccc2c(cnn2CC2CC2)c1 | 0.2 to 0.5
Nc1ccccc1NC(=O)c1ccc2c(cnn2Cc2cncc(F)c2)c1 | 0.2 to 0.5

Q) So what's the measured Kp for this one? Nc1cc(F)ccc1NC(=O)c1ccc2c(cnn2CC2CC2)c1
A) 0.5 to 1

###

assay: Hepatocyte stability and metabolism (parent remaining, acid and OPD formation); assay type: in vitro ADME; conditions: human hepatocytes, 6 h, 5 μM
metric: % left 6H Hum hep

// known answers, use as guide
Nc1cc(F)ccc1NC(=O)c1ccc2c(cnn2Cc2cccnc2)c1 [Compound A6] | B (50%>B>30%)
Cc1ccc(Cn2ncc3cc(C(=O)Nc4ccccc4N)ccc32)c(C)n1 [Compound A5] | B (50%>B>30%)
Cc1ccc(Cn2cc3cc(C(=O)Nc4ccccc4N)ccc3n2)c(C)n1 [Compound A15] | A (50%<A)
Cn1cc(Cn2ncc3cc(C(=O)Nc4ccccc4N)ccc32)cn1 [Compound A3] | A (50%<A)

Q) So what's the measured % left 6H Hum hep for this one? Nc1ccccc1NC(=O)c1ccc2nn(Cc3cncc(F)c3)cc2c1 [Compound A14]
A) A (50%<A)

###

Assay: Brain penetration studies
Format: in vivo
Conditions: C57/BL6/J, mouse; mice, s.c. 5 or 50 mg/kg or i.v. 5 mg/kg; Cmax(brain)/Cmax(plasma); read-out: BPR (brain/plasma ratio)
Method: Test compounds were prepared at either 0.5 mg/ml or 5 mg/ml in 30% hydroxypropyl-β-cyclodextrin, 100 mM sodium acetate pH 5.5, 5% DMSO. C57/BL6/J mice were dosed s.c. at 5 mg/kg or 50 mg/kg, or i.v. at 5 mg/kg. Animals were euthanized at pre-dose, 5, 15, 30 min, 1, 2 and 4 hours post-dose and plasma and brain obtained. […] The levels of compound in the plasma and brain were determined by standard LC/MS/MS methods. Brain/plasma ratio (BPR) was calculated as the ratio of the Cmax(brain)/Cmax(plasma). […]
The entries below come with measured Kp values attached.

Q) So what's the measured Kp for this one? Cc1ccc(Cn2ncc3cc(C(=O)Nc4ccccc4N)ccc32)c(C)n1 [Compound A5]
A) 0.2 to 0.5

###

experiment: Brain penetration studies; assay type: in vivo; settings: C57/BL6/J, mouse; mice, s.c. 5 or 50 mg/kg or i.v. 5 mg/kg; Cmax(brain)/Cmax(plasma); read-out: BPR (brain/plasma ratio)
metric: Kp

// known answers, use as guide
Nc1ccccc1NC(=O)c1ccc2nn(Cc3cccnc3)cc2c1 | < 0.1
Nc1ccccc1NC(=O)c1ccc2nn(Cc3cncc(F)c3)cc2c1 | 0.2 to 0.5
Cn1cc(Cn2ncc3cc(C(=O)Nc4ccccc4N)ccc32)cn1 | 0.2 to 0.5
Nc1cc(F)ccc1NC(=O)c1ccc2c(cnn2Cc2cncc(F)c2)c1 | 0.2 to 0.5
Nc1ccccc1NC(=O)c1ccc2c(cnn2Cc2cccnc2)c1 | 0.2 to 0.5

Q) So what's the measured Kp for this one? Nc1ccccc1NC(=O)c1ccc2c(cnn2Cc2ccc(F)c(F)c2)c1
A) > 1

Q) So what's the measured Kp for this one? Nc1ccccc1NC(=O)c1ccc2c(cnn2Cc2ccccc2)c1
A) > 1

Q) So what's the measured Kp for this one? Cc1ccc(Cn2cc3cc(C(=O)Nc4ccccc4N)ccc3n2)c(C)n1
A) < 0.1
